A collection of molecules and their measured Inhibition zone
# Tested on: Enterococcus faecalis ATCC29212
# protocol description: MIC measurement by CLSI disk method, Enterococcus faecalis ATCC 29212
# Type: cell-based
# test parameters: at the MIC amount per disk of the same line; mean of longest and shortest lengths of area without growth
Value expressed in mm; do not type the unit.

Problem: Note Inhibition zone for the molecule shown: C[C@H]1C/C=C/CC/C=C/CCCCCCCCCCCC[C@@H](OP(=O)([O-])OCC[N+](C)(C)C)CC(=O)O1 [Compound F, (3R,16E,20E,23S)-(−)-Eushearilide]
Solution: 7.7

Problem: Assign Inhibition zone to the following record: C[C@H]1C/C=C/CC/C=C/CCCCCCCCCCCC[C@H](OP(=O)([O-])OCC[N+](C)(C)C)CC(=O)O1 [Compound D, (3S,16E,20E,23S)-(+)-Eushearilide]
Solution: 2.2

Problem: Check the records and state Inhibition zone for C[C@H]1C/C=C/CC/C=C\CCCCCCCCCCCC[C@@H](OP(=O)([O-])OCC[N+](C)(C)C)CC(=O)O1 [Compound H, (3R,16Z,20E,23S)-(−)-Eushearilide]
Solution: 3.3

---
Problem: Specify reported Inhibition zone for the molecule shown: C[C@H]1C/C=C/CC/C=C\CCCCCCCCCCCC[C@H](OP(=O)([O-])OCC[N+](C)(C)C)CC(=O)O1 [Compound G, (3S,16Z,20E,23S)-(+)-Eushearilide]
Solution: 8.4

Problem: Tell me measured Inhibition zone for C[C@@H]1C/C=C/CC/C=C/CCCCCCCCCCCC[C@H](OP(=O)([O-])OCC[N+](C)(C)C)CC(=O)O1 [Compound E, (3S,16E,20E,23R)-(+)-Eushearilide] please.
Solution: 0.0
